# Tested on: PC-3 prostate
# Assay Summary: NCI-60 one-dose screen, 48 h (100 = growth as untreated, 0 = no growth, -100 = all killed)
# Condition Info: 10 µM unless noted
Compounds without any hit were thinned out: in the full panel of roughly 83,000, 20% have a hit.
Threshold check on growth: strictly below 80% is met; on or above 80% is not met.

Compound | Answer Label
S=P(SP(=S)(c1ccccc1)c1ccccc1)(c1ccccc1)c1ccccc1 | not met
CC(Oc1ccc(-c2ccccc2)cc1)C(=O)O (centres undefined) | not met
O=C(O)c1cc([N+](=O)[O-])cc([N+](=O)[O-])c1 | not met
Cc1cc[n+](CCc2ccccc2)cc1 | not met
COC(=O)[C@@H](C)C[C@H](Cc1ccccc1)NC(=O)c1cccc([C@@H](C[C@H](C(C)C)N(C)C(=O)[C@@H](NC(=O)[C@H]2CCCCN2C)C2CC2)OC(C)=O)n1 | met

query: I wonder whether `CCOC(=O)P(=O)(OCC)OCC` has growth below 80%. Can you tell?
result: not met

query: Field entry: `C[C@]12C[C@H](c3ccoc3)OC(=O)[C@H]1CC[C@@]1(C)[C@@H]2[C@H]2C=C[C@]1(O)C(=O)O2`
result: met

query: Field entry: `Cc1nnc([S-])o1.[Au+].c1ccc([PH+](c2ccccc2)c2ccccc2)cc1`
result: met

query: Field entry: `CC[C@H](C)[C@H](NC(=O)CN(C)C)C(=O)N(C)[C@H](C[C@@H](OC(C)=O)c1nc(C(=O)NC23CC(C(=O)OC)(C2)C3)cs1)C(C)C`
result: met

====

# Tested on: NCI/ADR-RES ovarian
# Assay Summary: NCI-60 one-dose screen, 48 h (100 = growth as untreated, 0 = no growth, -100 = all killed)
# Condition Info: 10 µM unless noted
Compounds without any hit were thinned out: in the full panel of roughly 83,000, 20% have a hit.
Threshold check on growth: strictly below 80% is True; on or above 80% is False.

These recorded examples may help you get a feel for the data.
Compound | Answer Label
C[C@]12CC[C@H](O)C[C@@H]1CC[C@@H]1[C@@H]2CC[C@]2(C)OC(=O)CC[C@@H]12 | False
Cc1cc(C(C)(C)C)ccc1O | False
c1ccc2c(c1)O[As](O[As]1Oc3ccccc3O1)O2 | True
C=CC[PH+](c1ccccc1)c1ccccc1.C=CC[PH+](c1ccccc1)c1ccccc1.[Pt+2].[S-]c1ncccn1.[S-]c1ncccn1 | True
Cn1cc(-c2csc(-c3cn(CCCCN4CCOCC4)c4ccc(F)cc34)n2)c2cccnc21 | True

query: I wonder whether `CCOP(=O)(OCC)C(=O)N(CC)CC` has growth below 80%. Can you tell?
result: False

query: Field entry: `NC(=O)Oc1cc(OC(N)=O)cc(N(CCCl)CCCl)c1`
result: True

query: Field entry: C=CCOC(=O)C(Br)CC (stereo not given)
result: False

query: Field entry: `Nc1ccc(S(=O)(=O)F)cc1`
result: False

query: Field entry: `CC1(C)C=Cc2c(ccc3c2[N+]([O-])=C2C3=C[C@@]34NC(=O)[C@]5(CCCN5C3=O)C[C@@H]4C2(C)C)O1`
result: True

====

# Tested on: HS 578T breast
# Assay Summary: NCI-60 one-dose screen, 48 h
# Condition Info: 10 µM unless noted
Compounds without any hit were thinned out: in the full panel of roughly 83,000, 20% have a hit. Calls of active or inactive are those of the source. How the source made its calls: active means growth percent below 10; inactive means the rest.
Your reply should match one of these outcome classes. 1 (yes) for active, 0 (no) for inactive

query: Any idea what this test logged for `CO/N=C1\CC[C@]2(C)[C@H]3CC[C@]4(C)C(=O)CC[C@H]4[C@@H]3C[C@@H]3SC(N)=N[C@@]32C1` ?
result: 0 (no)

query: Field entry: `C/C(=C\c1ccn(-c2ccc(N)cc2F)n1)[C@@H]1C[C@@H]2O[C@]2(C)CCC[C@H](C)[C@H](O)[C@@H](C)C(=O)C(C)(C)[C@@H](O)CC(=O)O1`
result: 1 (yes)

query: Field entry: `c1ccc2c(c1)O[As](O[As]1Oc3ccccc3O1)O2`
result: 0 (no)

query: Field entry: `Cc1cc2c(cc1-c1ccnc(/C=C/C(=O)O)c1)C(C)(C)CCC2(C)C`
result: 0 (no)
